B1: VH:VL chains; a variant is named by its letters at X, in order (parent)
chain 1: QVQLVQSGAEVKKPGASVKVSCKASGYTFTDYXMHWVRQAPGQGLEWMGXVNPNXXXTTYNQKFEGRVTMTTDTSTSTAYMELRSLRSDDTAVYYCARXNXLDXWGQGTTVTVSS
chain 2: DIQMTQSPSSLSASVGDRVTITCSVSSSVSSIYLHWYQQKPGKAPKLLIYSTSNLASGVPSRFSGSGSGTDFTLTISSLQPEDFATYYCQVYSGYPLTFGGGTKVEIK

# Variants of: B1
# Assay Overview: yeast display scFab, FACS + sequencing
Assay Endpoint: non-specific binding call

Variant Descriptor: YRKRGSGV
non-specific binding call: binds
//
Variant Descriptor: VTTKSAAV
non-specific binding call: no binding
//
Variant Descriptor: YRRRGVGD
non-specific binding call: binds
//
Variant Descriptor: AARADDVA
non-specific binding call: no binding
//
Variant Descriptor: YKGAGSAD
non-specific binding call: binds
//
Variant Descriptor: VEEEGSVV
non-specific binding call: no binding
//
Variant Descriptor: YKGKGALA
non-specific binding call: binds
//
Variant Descriptor: YARETDGA
non-specific binding call: no binding

Consider the following items and state reported non-specific binding call for each.
1. YETEGDVF
2. FRGEGFSV
3. VAEKGDAA
4. VTGRAALA
5. YRARGAWY
6. YTGGDDVY
7. YRRGGAGV

**Result**
no binding
binds
no binding
no binding
binds
no binding
binds

Dear colleague, could you send me non-specific binding call for each of the items below? Thanks.
1. DGTKSYGV
2. YRKGSSGF
3. DAGTGAGD

**Result**
binds
binds
no binding

Provide each entry's non-specific binding call from the list below.
1. FRGGGVGV
2. YKGEGFSS
3. DAGGGAGD
4. DTKAASSA

**Result**
["binds", "binds", "no binding", "no binding"]

Quick request: non-specific binding call for each listed item, please.
1. ATGRAAGD
2. FKTEGFVS
3. SKTKSDGV

**Result**
1: no binding; 2: binds; 3: no binding

Please look at the items below and tell me non-specific binding call for each one, in order.
1. FRRGSSGS
2. YTGTSDWY

**Result**
1: binds; 2: no binding

Give non-specific binding call for each listed item.
1. FARETFGV
2. DRGGDAVV
3. ATGEGDGV
4. YRRGDSAD
5. DEGGTDVD
6. STGTSDLY

**Result**
["binds", "no binding", "no binding", "binds", "no binding", "no binding"]

Provide non-specific binding call for all items below, preserving their order.
1. DKGEGDGA
2. AREEGFSV
3. YKARGAAD
4. YRRGSSGF
5. YRGRGFSA
6. VKGKDSGD
7. DRGRDSSA

**Result**
no binding
no binding
binds
binds
binds
binds
no binding

For every item in the list below, what is its measured non-specific binding call?
1. YAAAAFGY
2. DAATADSS
3. YRGGGYGF
4. VETEGDWD
5. DKGRGSSA
6. YRRRGSVA
7. YRGAGSGV

**Result**
binds
no binding
binds
no binding
no binding
binds
binds
